Catalogue of FEV0.3 readings, one per entry.
# System: rat pulmonary fibrosis model
# Experiment: Lung function (FinePointe PFT) in bleomycin pulmonary fibrosis rats, Example 1
# Format: in vivo, SD rats
# Protocol Conditions: bleomycin 5 mg/kg intratracheal, intragastric once daily day 29-42, doses per Table 4, X ± SE, N = 10
Note: state the figure and append the unit.

Below, each entry is followed by its recorded FEV0.3 result.
INPUT: Could you share what FEV0.3 was measured for COc1ccc(-c2oc3c(CC=C(C)C)c(O[C@@H]4O[C@H](CO)[C@@H](O)[C@H](O)[C@H]4O)cc(O)c3c(=O)c2O[C@@H]2O[C@@H](C)[C@H](O)[C@@H](O)[C@H]2O)cc1 [Formula 3, icariin] , tested on rat pulmonary fibrosis model?
OUTPUT: 10.46 ± 1.58 mL/s

INPUT: Another compound: C[C@H]1CC[C@@H]2N(C1)C[C@H]1[C@@H]3C[C@H]4[C@@H](C[C@H](O)[C@H]5C[C@@H](O)CC[C@@]54C)[C@@H]3CC[C@@H]1[C@]2(C)O [Formula 6, peimine]
OUTPUT: 12.04 ± 1.36 mL/s

INPUT: Item: COc1ccc(-c2cc(=O)c3c(OC)c(OC)c(OC)c(OC)c3o2)cc1OC [Formula 5, nobiletin]
OUTPUT: 11.44 ± 1.41 mL/s

INPUT: How about O=C(/C=C/c1ccc(O)cc1)c1ccc(O)cc1O [Formula 4, isoliquiritigenin] ?
OUTPUT: 10.42 ± 1.43 mL/s

Pending compound:
INPUT: rat pulmonary fibrosis model / FEV0.3 / Cc1ccc(=O)n(-c2ccccc2)c1 [Pirfenidone] : value?
OUTPUT: 10.68 ± 0.97 mL/s

Reference for the values: patent US20260108548A1
